Just for reference, ChEMBL document CHEMBL1201862 is where these values come from.

- Tested on: SK-MEL-5
- experimental_protocol: NCI tumour cell line growth inhibition, 48 h
Activity calls are given as the source filed them. Cut-off read from the data, not from the text of the source: active = GI50 up to about 1.1 µM and inactive = higher.
Possible outcomes: 1 for active, -1 for inactive

OC(COC(c1ccccc1)(c1ccccc1)c1ccccc1)C(O)CC1SCCS1 (stereo not given) | -1
O=C1C2C3C=C4c5ccccc5N(c5ccccc5)C4(C2C(=O)N1c1ccc([N+](=O)[O-])cc1)[C@H]1C(=O)N(c2ccc([N+](=O)[O-])cc2)C(=O)[C@@H]31 (stereo not given in full) | -1
Sc1nn2c(COc3ccc(Cl)cc3)nnc2s1 | -1
Cc1ccc(-c2cc(-c3ccccc3)nc(N)n2)c(O)c1 | -1
N#Cc1c(N)oc2cc3c(C#N)c(N)oc3cc12 | -1
Cc1ccc(NC(=S)N/N=C(/c2ccccc2)c2ccccn2)cc1 | 1
Cc1c(CN)c(C)c(CN)c(C)c1CN | -1
CC(=O)Nc1ccccc1C=C1c2ccccc2-c2ccccc21 | -1
CCN1CC2(CO)CCC(OC)C34C5CC6C(OC)CC(O)(C5C6OC)C(O)(C(OC)C23)C14 (stereo not given) | -1
CC1(C)[C@@H](Cn2ccc(=O)[nH]c2=O)CC[C@@]1(C)CO | -1
